From: patent US20050282840A1

# target of assay: p75^NTR receptors (PC12 cells) (Rattus norvegicus)
# Construct: endogenous in cells; host or cells: PC12 cells
# Sequence (P07174 30-425): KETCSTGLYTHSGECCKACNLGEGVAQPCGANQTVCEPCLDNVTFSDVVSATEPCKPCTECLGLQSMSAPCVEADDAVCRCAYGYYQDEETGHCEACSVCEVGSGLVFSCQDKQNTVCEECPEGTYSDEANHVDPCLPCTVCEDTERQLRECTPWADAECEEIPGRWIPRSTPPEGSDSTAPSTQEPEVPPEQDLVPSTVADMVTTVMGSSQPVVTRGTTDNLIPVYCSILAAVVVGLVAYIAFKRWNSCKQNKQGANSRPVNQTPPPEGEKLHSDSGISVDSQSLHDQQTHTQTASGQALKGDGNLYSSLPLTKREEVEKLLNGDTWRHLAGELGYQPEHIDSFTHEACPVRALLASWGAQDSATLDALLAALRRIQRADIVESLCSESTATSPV
# Sequence (P23560 129-247 partner): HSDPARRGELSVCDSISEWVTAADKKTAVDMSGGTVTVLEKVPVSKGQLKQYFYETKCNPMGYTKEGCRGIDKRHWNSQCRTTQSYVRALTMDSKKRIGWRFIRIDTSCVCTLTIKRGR
# method summary: Basic screening assay: binding of 125I-BDNF to PC12 cells
# run conditions: read-out: BDNF Activity % Maximal Binding
Measured activity at 50 µM values are reported for all entries that follow.

O=C1NC(=S)N(c2ccc(F)cc2)C(=O)/C1=C\c1ccc(-c2cccc([N+](=O)[O-])c2)o1 [Compound 70]
0 to 10%

As a next step, examine the compound that follows.
(Q) Recorded activity at 50 µM for O=C1NC(=O)C(=Cc2ccc(-c3ccc(Cl)c(C(=O)O)c3)o2)C(=O)N1 [Compound 75] , please?
(A) 0 to 10%

* * *

# target of assay: p75^NTR receptors (PC12 cells) (Rattus norvegicus)
# Construct: endogenous in cells; host or cells: PC12 cells
# method summary: Basic screening assay: binding of 125I-BDNF to PC12 cells
# run conditions: read-out: BDNF Activity % Maximal Binding
# Protocol: The compounds were screened for effects on binding of ^125I-BDNF or ^125I-NGF to PC12 cells (p75^NTR receptors), and those that inhibited binding were further tested to determine the EC50 for this inhibition. PC12 cells were cultured and prepared for binding assays as described in Example 1. […]
Reported activity at 50 µM values are given for each entry in this list.

Reference set (8 entries):
Cc1c(-c2ccc(C=C3C(=O)NC(=O)NC3=O)o2)cccc1[N+](=O)[O-]
> 50%
O=C1NC(=O)N(Cc2ccccc2)C(=O)/C1=C/c1ccc(-c2cccc(C(=O)O)c2)o1
> 50%
O=C1NC(=S)NC(=O)C1=Cc1ccc(-c2ccc([N+](=O)[O-])cc2Cl)o1
0 to 10%
CN1C(=O)NC(=O)/C(=C/c2ccc(-c3cccc(C(=O)O)c3)o2)C1=O
10 to 20%
Cc1c(-c2ccc(C=C3C(=O)NC(=S)NC3=O)o2)ccc([N+](=O)[O-])c1C
0 to 10%
Cc1cc(-c2ccc(C=C3C(=O)NC(=S)NC3=O)o2)cc([N+](=O)[O-])c1C
0 to 10%
CN1C(=O)NC(=O)C(=Cc2ccc(-c3ccc(C(=O)O)cc3)o2)C1=O
0 to 10%
Cc1c(-c2ccc(C=C3C(=O)NC(=O)NC3=O)o2)ccc([N+](=O)[O-])c1C
20 to 30%

API: the following record is the query input.
(Q) For p75^NTR receptors (PC12 cells) (Rattus norvegicus), provide activity at 50 µM of `O=C1NC(=S)NC(=O)C1=Cc1ccc(-c2ccc(C(=O)O)c(Cl)c2)o1` please.
(A) 0 to 10%
